All values here come from PubChem BioAssay AID1159580.

Assay: chemical genetic growth profiling, strain panel (AID 1159580);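 note: tested at 20 µM; growth read once vehicle control cultures reached saturation at 30 °C; 1 = growth at the plate median or of vehicle wells; lower values mean less growth of the strain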
Conditions: S. cerevisiae deletion strains, growth OD, locus YOR061W, strain CKA2, hits give low values
Screen size: about 5,500 compounds; about 2,000 (36%) were called active. Another 18% or so got no clear call; they are omitted. Some of the results follow.
Observation type: normalized growth
Note: the reply should be a number with no unit written.

These solved cases illustrate the format of a correct answer.
molecule=COc1cc(-c2coc3cc(OCc4ccccc4)c(OC)c(O)c3c2=O)cc(OCc2ccccc2)c1OC assay_result=0.989
molecule="O=C1[C@H](CCC(O)c2ccc(F)cc2)[C@@H](c2ccc(O)cc2)N1c1ccc(F)cc1 (stereo not given in full)" assay_result=0.984

// sample `COc1cc2occ(-c3ccccc3)c(=O)c2c(OC)c1C` , its normalized growth was 0.96

----------
Test: chemical genetic growth profiling, strain panel (AID 1159580);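 note: tested at 20 µM; growth read once vehicle control cultures reached saturation at 30 °C; 1 = growth at the plate median or of vehicle wells; lower values mean less growth of the strain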
Details: S. cerevisiae deletion strains, growth OD, locus YLR039C, strain RIC1
The campaign covered roughly 5,500 compounds. About 2,000 (36%) were called active. Inconclusive results (about 18%) are left out. Cut-off read from the data, not from the text of the source: active = normalized growth mostly below about 0.91 (no sharp cut-off); inconclusive = no clear call, values can overlap the other calls; inactive = mostly above about 0.92. The list shows a part of the results.
// one of TRUE for active, FALSE for inactive, no free text

molecule=Cc1cccc(C(=O)O)c1O discrete_label=FALSE
molecule=COc1ccc2c(c1)CCC(c1ccccc1)=C2c1ccc(OCCN2CCCC2)cc1 discrete_label=TRUE
molecule=O=c1[nH]oc2c1CCNC2 discrete_label=FALSE
molecule=Cc1ccc(NC(=O)c2c(F)cccc2Cl)c(C(=O)Nc2ccc(F)cc2)c1 discrete_label=FALSE
molecule=COCCCNC(=S)Nc1ccc(C)cc1C discrete_label=FALSE

Ask | Hey, what did the test say about `CSC(=NC#N)N1CCN(c2ccc([N+](=O)[O-])cn2)CC1` ?
Reply | FALSE

Ask | Hey, what did the test say about CC[C@H](C)C(=O)O[C@H]1CCC=C2C=C[C@H](C)C(CCC3C[C@@H](O)CC(=O)O3)[C@H]21 (stereo partly drawn) ?
Reply | FALSE

Ask | Hey, what did the test say about CO/N=C(\C(=O)NC1C(=O)N2C(C(=O)O)=C(COC(N)=O)CSC12)c1ccco1 (stereo not drawn) ?
Reply | TRUE

----------
Test: chemical genetic growth profiling, strain panel (AID 1159580);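 note: tested at 20 µM; growth read once vehicle control cultures reached saturation at 30 °C; 1 = growth at the plate median or of vehicle wells; lower values mean less growth of the strain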
Settings: S. cerevisiae deletion strains, growth OD, locus YJL095W, strain BCK1, hits give low values
The whole screen tested about 5,500 compounds, of which about 2,000 (36%) were called active. Inconclusive results (about 18%) are left out. Some of the results follow.
Entries and their measured normalized growth follow.
Note: the reply should be a number with no unit written.

molecule=FC(F)(F)c1cccc(-n2c(CSCc3cccc4ccccc34)n[nH]c2=S)c1 observation_type="normalized growth" assay_result=1.06
molecule=Cc1onc(-c2c(F)cccc2Cl)c1C(=O)ON=C1C2CC3CC(C2)CC1C3 observation_type="normalized growth" assay_result=0.968
molecule="C#CCCCCCCCCCCCC(=O)CC(O)COC(C)=O (centres undefined)" observation_type="normalized growth" assay_result=0.665
molecule=C[C@H]1COC2=C1C(=O)C(=O)c1c2ccc2c1CCCC2(C)C observation_type="normalized growth" assay_result=0.31
molecule=CCCOc1ccc(C(=O)OCCN(CC)CC)cc1N observation_type="normalized growth" assay_result=1

// sample `CCN(CC)CCOC(=O)c1ccc(N)cc1` , its normalized growth was 1.03
